The measured values listed here are drawn from patent EP4786452A1.

setup conditions: human, microsomes, 1 µM, pH 7.4
test readout: In vitro T1/2 (min)

>>> measurement("CC(C)OC(=O)CCCC(C)(O)C(=O)Nc1cnc(C#N)c(C(F)(F)F)c1 (single isomer, unassigned)")
11.1

A: COC(=O)CCCC(C)(O)C(=O)Nc1cnc(C#N)c(C(F)(F)F)c1 (single isomer, unassigned)
B: CCOC(=O)CCCC(C)(O)C(=O)Nc1cnc(C#N)c(C(F)(F)F)c1 (single isomer, unassigned) [Compound 005]
Exercise: Given the two records A and B , choose the one whose In vitro T1/2 value is lower. Reply briefly: the label of your chosen item.
Solution: B

* * *

assay text: in vitro
setup conditions: mouse, blood, Half-life T 1/2 in CD-1 mouse whole blood
test readout: half-life at 5 µM (min)

>>> measurement("CCOC(=O)CCCC(C)(O)C(=O)Nc1cnc(C#N)c(C(F)(F)F)c1 (single isomer, unassigned)")
3.54

1: CC(C)OC(=O)CCCC(C)(O)C(=O)Nc1cnc(C#N)c(C(F)(F)F)c1 (single isomer, unassigned)
2: CSc1cc(NC(=O)C(C)(O)CCCC(=O)OC(C)C)cnc1C#N (single isomer, unassigned)
3: COC(=O)CCCC(C)(O)C(=O)Nc1cnc(C#N)c(C(F)(F)F)c1 (single isomer, unassigned)
Exercise: Parameters: sort_field (half-life at 5 µM), sort_dir (desc). Ranked list of labels, please, in the requested order.
Solution: 1, 2, 3

* * *

assay text: in vitro
setup conditions: human, microsomes, pH 7.4, In vitro T1/2
test readout: half-life at 1 µM (min)

Recorded results for 2 compounds are shown here.
>>> measurement("CSc1cc(NC(=O)C(C)(O)CCCC(=O)OC(C)C)cnc1C#N (single isomer, unassigned)")
5.7
>>> measurement("COC(=O)CCCC(C)(O)C(=O)Nc1cnc(C#N)c(C(F)(F)F)c1 (single isomer, unassigned)")
6.1

1: CC(C)OC(=O)CCCC(C)(O)C(=O)Nc1cnc(C#N)c(C(F)(F)F)c1 (single isomer, unassigned)
2: CCOC(=O)CCCC(C)(O)C(=O)Nc1cnc(C#N)c(SC)c1 (single isomer, unassigned)
Exercise: Which value of half-life at 1 µM is numerically greater: that of 1 or that of 2 ? // caller expects the label of the chosen entry
Solution: 1
(1: 5.9 min, 2: 2.8 min)

* * *

setup conditions: human, microsomes, 1 µM, pH 7.4
test readout: In vitro T1/2 (min)

>>> measurement("CSc1cc(NC(=O)C(C)(O)CCCC(=O)OC(C)C)cnc1C#N (single isomer, unassigned)")
5.6
>>> measurement("COC(=O)CCCC(C)(O)C(=O)Nc1cnc(C#N)c(SC)c1 (single isomer, unassigned) [Compound 015]")
5.12

a: CCOC(=O)CCCC(C)(O)C(=O)Nc1cnc(C#N)c(C(F)(F)F)c1 (single isomer, unassigned) [Compound 006]
b: COC(=O)CCCC(C)(O)C(=O)Nc1cnc(C#N)c(SC)c1 (single isomer, unassigned) [Compound 016]
Exercise: Please let me know which one, a or b , has a lower measured In vitro T1/2 value. Output the label that corresponds to your choice.
Solution: b

* * *

setup conditions: 5 µM
test readout: Half-life T 1/2 in human whole blood (h)

1: COC(=O)CCCC(C)(O)C(=O)Nc1cnc(C#N)c(C(F)(F)F)c1 (single isomer, unassigned)
2: CC(C)OC(=O)CCCC(C)(O)C(=O)Nc1cnc(C#N)c(C(F)(F)F)c1 (single isomer, unassigned)
3: COC(=O)CCCC(C)(O)C(=O)Nc1cnc(C#N)c(SC)c1 (single isomer, unassigned) [Compound 016]
Exercise: Arrange these compounds by their Half-life T 1/2 in human whole blood, starting with the largest number. // respond by listing labels in the order requested
Solution: 2, 1, 3

1: CSc1cc(NC(=O)C(C)(O)CCCC(=O)OC(C)C)cnc1C#N (single isomer, unassigned)
2: CCOC(=O)CCC[C@](C)(O)C(=O)Nc1cnc(C#N)c(SC)c1
Exercise: Field: lower Half-life T 1/2 in human whole blood | Options: 1 / 2 State your choice using its label.
Solution: 2
(2: 1.492 h, 1: 3.2468 h)
